Target: anti-CD28 Fab
Sequence (VH, as listed by the source, chain 1 of 2): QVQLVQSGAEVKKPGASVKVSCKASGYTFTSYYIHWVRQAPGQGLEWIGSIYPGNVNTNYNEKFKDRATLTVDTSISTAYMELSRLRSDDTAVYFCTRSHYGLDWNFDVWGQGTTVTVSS
Sequence (VL, as listed by the source, chain 2 of 2): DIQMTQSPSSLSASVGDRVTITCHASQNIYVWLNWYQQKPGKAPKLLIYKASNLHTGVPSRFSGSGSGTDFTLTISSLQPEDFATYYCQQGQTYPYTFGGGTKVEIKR
Experiment: competition ELISA: peptide titrated (0-100 µM) with 1 nM anti-CD28 Fab, binding to plate-bound CD28
MEASURED_ATTRIBUTE: pIC50
Just so you know, pIC50 here is -log10 of the concentration in molar units; reply with that number alone.

{"columns": ["BINDER", "MEASURED_ATTRIBUTE", "RESULT_NUMBER"],
 "data": [
  ["SCAAGASYAWPYCA [Peptide-106]", "pIC50", 4.12]
]}

Problem: Which pIC50 reading was recorded for the binder SCAAGASYAWPYCL [Peptide-92] ?
Solution: 5.10

Problem: Which pIC50 reading was recorded for the binder SCAAGAAYAWPYCL [Peptide-101] ?
Solution: 5.13

Problem: Which pIC50 reading was recorded for the binder ACAAGASYAWPYCL [Peptide-99] ?
Solution: 4.68

Problem: Which pIC50 reading was recorded for the binder SCAAGASYAWPACL [Peptide-105] ?
Solution: 4.89
